- Test system: HOP-92 NSCLC
- assay explanation: NCI tumour cell line growth inhibition, 48 h
# Lookup of reported GI50 keyed by entry

# molecule, GI50
data = [
    ("Cn1c(-c2ccncc2)c(-c2ccc(F)cc2)c2ncccc21", "7.39 µM"),
    ("O=C(O)c1ccc(NCc2nc3cc(Cl)c(Cl)cc3[nH]2)cc1", "> 100 µM"),
    ("O=c1ncc(I)cn1C1CC(O)C(CO)O1 (stereo not given)", "> 3250 µM"),
]

Which measured GI50 belongs to O=C1C=CC2(O)OC/C(=C\c3ccccc3)C(O)=C2C1=O (stereo not given) , tested on HOP-92 NSCLC?
1.27 µM

Which measured GI50 belongs to CNCCCNc1nc2ccccc2c2c(=O)c3cc(F)ccc3sc12 , tested on HOP-92 NSCLC?
1.02 µM

Which measured GI50 belongs to c1ccc(CC(Cc2ccccc2)C2=NCCCN2)cc1 , tested on HOP-92 NSCLC?
4.52 µM

Which measured GI50 belongs to CC(=O)NC1C(OCc2ccccc2)OC(CO)C(O)C1OC(C)C(=O)NC(C)C(=O)N[C@@H](CCC(=O)OCCCNC1c2ccccc2Nc2cccc([N+](=O)[O-])c21)C(N)=O (stereo not given in full) , tested on HOP-92 NSCLC?
0.0159 µM

Which measured GI50 belongs to O=C(CN(/C=C/C(=O)C(F)(F)F)c1ccc(Cl)cc1)c1ccc(F)cc1 , tested on HOP-92 NSCLC?
18 µM

Which measured GI50 belongs to COc1ccc2c(c1OC)-c1c(c3ccc([N+](=O)[O-])cc3c(=O)n1CCCN)C2=O , tested on HOP-92 NSCLC?
12.3 µM

Which measured GI50 belongs to COc1cc(OC)c(/C=C/c2cc[n+](C)c3ccccc23)c(OC)c1 , tested on HOP-92 NSCLC?
1.42 µM

Which measured GI50 belongs to Nc1c(C(=O)c2cccc(OC[C@@H](O)CO)c2)cnn1-c1ccc(F)cc1 , tested on HOP-92 NSCLC?
> 25 µM

Which measured GI50 belongs to COc1ccc(C2C=C(c3ccc(OC)c(OC)c3)N=C3SC=CN32)c(Br)c1 (stereo not given) , tested on HOP-92 NSCLC?
8.66 µM

Which measured GI50 belongs to O=c1ccccc(-c2ccc(Br)cc2)c1O , tested on HOP-92 NSCLC?
6.53 µM

Which measured GI50 belongs to CC(=O)Oc1cc(C(C)C)c(OCCN(C)C)cc1C , tested on HOP-92 NSCLC?
> 100 µM

Which measured GI50 belongs to CC(=O)N1CCC(Nc2ncc3cc(Oc4ccc(F)cc4F)c(=O)n(C)c3n2)CC1 , tested on HOP-92 NSCLC?
2.45 µM

----------
- Tested on: MDA-N
- assay explanation: NCI tumour cell line growth inhibition, 48 h
measure name: TGI

Consider the worked cases shown below.
# compound, target desc, TGI
measured = [
    ("COc1ccc(C2SC(N)=Nc3c2c(C)nn3C(=O)Cc2ccccc2)cc1 (stereo not given)", "MDA-N", "> 100 µM"),
    ("CNC(=S)/C(C#N)=C(\\N)N1CCN(C)CC1", "MDA-N", "> 100 µM"),
    ("C=C(C)c1cc(C(C)(C)C)cc(C(=C)C)c1S(C)(=O)=O", "MDA-N", "> 100 µM"),
    ("COc1cc(-c2nc3ccc(N4CCN(C)CC4)cc3[nH]2)c(OC)c2[nH]c(CO)nc12", "MDA-N", "> 100 µM"),
]

Now let's try a different one.
Which measured TGI belongs to O=c1c(=O)c2cscc2c1=O , tested on MDA-N?
9.72 µM
